# test protocol: xn = mol fraction of the nth substance listed, in the solute-free solvent
# measurement parameters: 283.15 K; x2 = 0.6
assay metric: solubility (g/100 g solution)

Past entries and their recorded results:
O=C(CC(=O)c1ccccc1)c1ccccc1 + CC(C)O + O; 0.936
O=c1[nH]cc(F)c(=O)[nH]1 + CO + C1CCOC1; 0.283
O=C(CC(=O)c1ccccc1)c1ccccc1 + CO + O; 0.351
O=c1ccc2ccccc2o1 + CC(C)=O + O; 30.2
CC1(C)SC2C(NC(=O)C(NC(=O)N3CCNC3=O)c3ccccc3)C(=O)N2C1C(=O)O (stereo not drawn) + CO + CC(C)O; 0.22

a: CCOC(=O)C1=CC2(CC)CCCN3CCc4c(n1c1ccccc41)C32 (stereo not drawn) + CCO + O
b: O=C(CC(=O)c1ccccc1)c1ccccc1 + CCO + O
Please indicate which item has the smaller measured solubility (g/100 g solution): a versus b Reply briefly: the label of your chosen item. a
(a: 0.257, b: 0.706)

Entry source: the CheMixHub drug solubility set
